These data points were gathered from paper PMC11310081.

Test system: HEK293T cells
experimental-context: 24 h
Peptide text beside a SMILES is read from it.
measured-endpoint: CC50

Problem: Entry CC[C@H](C)[C@H](NC(=O)[C@@H](NC(=O)[C@H](CCSC)NC(=O)[C@@H](N)Cc1c[nH]c2ccccc12)[C@@H](C)O)C(=O)N[C@@H](Cc1c[nH]cn1)C(=O)N[C@@H](C)C(=O)N[C@@H](CC(C)C)C(=O)N[C@@H](CCCCN)C(=O)N[C@@H](CC(C)C)C(=O)N[C@@H](CO)C(=O)N[C@@H](CC(C)C)C(=O)N[C@@H](CO)C(=O)N[C@@H](Cc1ccccc1)C(=O)N[C@@H](CCCCN)C(=O)N[C@@H](CC(C)C)C(=O)O [Mammutin-1] (H-WMTIHALKLSLSFKL-OH; N-terminus and C-terminus assumed) : reported CC50 = ?
Solution: > 128 µM
